B1: library; a variant is named by its letters at N, in order (parent)
chain: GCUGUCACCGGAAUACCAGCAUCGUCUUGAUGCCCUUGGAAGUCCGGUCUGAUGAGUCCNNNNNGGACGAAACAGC

Variants of: B1
Assay: FACS-Seq fitted mean relative fluorescence mCherry/BFP with ligand (log10 relative fluorescence); ligand concentration (+) FACS-Seq: 1 mM; higher = higher reporter protein expression
Conditions: HEK293T, ligand present: yes
The label depends only on FACS-Seq fitted mean (log10): class 1 if it is at least 0.7, class 0 if it is smaller.

Reference set, count: 3
• ACGGA = class 0
• AUCGG = class 1
• UAAGG = class 1

# check: FACS-Seq fitted mean (log10) of "AAUAG" is greater than or equal to 0.7
class 1

# check: FACS-Seq fitted mean (log10) of "UCUUU" is greater than or equal to 0.7
class 1

# check: FACS-Seq fitted mean (log10) of "GAAAU" is greater than or equal to 0.7
class 1
